experiment: NCI Yeast Anticancer Drug Screen. Data for the rad18 strain (AID 177); conditions: S. cerevisiae rad18 mutant growth inhibition; at 1.2 µM; active compounds read high
About 79,000 compounds went through this panel and 15% of them were active in at least one assay; those are over-represented in the sample as a whole.
Value kind: growth inhibition (%)

>>> result("CC1=CC(C)(C)SC(SSSC2=NC(C)=CC(C)(C)S2)=N1")
-4
>>> result("COc1cc(NCCCCNCC(C)(C)C)c2ncccc2c1")
-5
>>> result("Cc1ccc(S(=O)(=O)Nc2cccc3cccnc23)cc1")
9
>>> result("COc1cc2c(cc1OC)[C@@H](Nc1ccc(C#N)cc1)C1COC(=O)[C@@H]1C2c1cc(OC)c(O)c(OC)c1 (stereo not given in full)")
-30
>>> result("CCN(CC)C(=S)N/N=C(\\C)c1ccccc1O")
18
>>> result("CC(C)(N=Nc1ccc(Cl)cc1)[N+](=O)[O-]")
15
>>> result("O=NC1c2cccc3cccc(c23)C1N=O (stereo not given)")
22
>>> result("CCCCCCCCCCCCOCCOCCOCC(N)=O")
-18
>>> result("CC(C)OP(=O)(OC(C)C)C(=NCCO)NNc1ccc([N+](=O)[O-])cc1")
20
>>> result("CC(C)NCCCNc1c2ccccc2nc2cccc([N+](=O)[O-])c12")
97
>>> result("COc1ccc(/C=C2\\SC(=S)N(/C=C3\\C(=O)N(c4ccccc4)N=C3C)C2=O)cc1OC")
5
>>> result("O/N=c1/ccn(O)c2ccccc12")
96
>>> result("CC(C)OC(=O)NNc1c(Cl)cc(Cl)cc1Cl")
0
>>> result("CC(=O)/C(=C\\c1ccc(Cl)c(Cl)c1)C(=O)C(C)CN(C)C (stereo not given)")
26
>>> result("Cc1oc2ccccc2c(=O)c1Cn1nnc2ccccc21")
-2
